# STUDY_TARGET: HLA-DR DRB1*0101 (DR1) (Homo sapiens, UniProt P01903+P01911, A100R/D57E/F55L/F60I/F76Y/I96L/L162R/M171V/P40L/Q125E/R42F/V115G/Y59C)
# EXPERIMENT_SUMMARY: biochemical
# Format: binding
# RECORDED_CONDITIONS: DRB1 *0101
REPORTED_METRIC: pIC50
Reminder that pIC50 means the negative base-10 logarithm of the concentration expressed in mol/L.

{"columns": ["SMILES_CODE", "pIC50"],
 "data": [
  ["CC[C@H](C)[C@H](NC(=O)[C@@H](N)Cc1c[nH]c2ccccc12)C(=O)N[C@H](C(=O)N[C@@H](CCC(N)=O)C(=O)N[C@@H](CS)C(=O)N[C@@H](Cc1ccccc1)C(=O)N[C@@H](CC(C)C)C(=O)N1CCC[C@H]1C(=O)N[C@H](C(=O)N[C@@H](Cc1ccccc1)C(=O)N[C@@H](CC(C)C)C(=O)N[C@@H](C)C(=O)N[C@@H](CCC(N)=O)C(=O)N1CCC[C@H]1C(=O)N1CCC[C@H]1C(=O)N[C@@H](CO)C(=O)NCC(=O)N[C@@H](CCC(N)=O)C(=O)N[C@@H](CCCNC(=N)N)C(=O)N[C@@H](CCCNC(=N)N)C(=O)O)C(C)C)[C@@H](C)O", 6.17]
]}

Qu. Fill blank: measured pIC50 of the compound CSCC[C@H](NC(=O)[C@@H]1CCCN1C(=O)[C@@H](N)CC(=O)O)C(=O)N[C@@H](Cc1ccccc1)C(=O)N[C@@H](CCCCN)C(=O)N[C@@H](Cc1ccc(O)cc1)C(=O)N[C@@H](Cc1c[nH]cn1)C(=O)N[C@@H](CC(C)C)C(=O)N[C@H](C(=O)N[C@H](C(=O)N[C@@H](C)C(=O)N[C@@H](CCC(N)=O)C(=O)N[C@H](C(=O)N[C@@H](CCCNC(=N)N)C(=O)NCC(=O)O)C(C)C)C(C)C)[C@@H](C)O is ____.
Ans. 8.24

Each recorded value in this set is attributed to patent US20060079453A1.
